All figures here come from patent US20120214743A1.

Tested on: ICR mice
Experiment: SP-induced scratch behavior in ICR mice
Type: in vivo, mouse
Settings: transdermal, 0.5 nmol/site in acetone/olive (3:1), tape-stripped skin, 3-4 minutes before SP 100 nmol/site intradermal; FIG. 3
Ends that are not written are not given here. * marks the point of attachment. SO3H = O=S(=O)(O)*
readout_kind: scratch behavior (frequency of scratch, first 20 minutes)

| substance | assayed_target | data_value |
| --- | --- | --- |
| Met-Gly-Trp-Met-Asp-Phe-NH2 (MGWMDF-NH2) [CCK6, cholecystokinin analogue without the tyrosine] | ICR mice | no significant reduction |
| Asp-Tyr(SO3H)-Met-Gly-Trp-Met-Asp-Phe-NH2 (DY(SO3H)MGWMDF-NH2) [CCK8S, natural type cholecystokinin, tyrosine at seventh position from C-terminal sulfated] | ICR mice | significant reduction |
| Tyr-Met-Gly-Trp-Met-Asp-Phe-NH2 (YMGWMDF-NH2) [CCK7, cholecystokinin analogue in which the tyrosine is not sulfated] | ICR mice | no significant reduction |
| Tyr(SO3H)-Met-Gly-Trp-Met-Asp-Phe-NH2 (Y(SO3H)MGWMDF-NH2; N-terminus assumed; SMILES CSCC[C@H](NC(=O)[C@H](Cc1c[nH]c2ccccc12)NC(=O)CNC(=O)[C@H](CCSC)NC(=O)[C@@H](N)Cc1ccc(OS(=O)(=O)O)cc1)C(=O)N[C@@H](CC(=O)O)C(=O)N[C@@H](Cc1ccccc1)C(N)=O) [CCK7S, natural type cholecystokinin, tyrosine at seventh position from C-terminal sulfated] | ICR mice | significant reduction |
| Asp-Tyr-Met-Gly-Trp-Met-Asp-Phe-NH2 (DYMGWMDF-NH2) [CCK8, cholecystokinin analogue in which the tyrosine is not sulfated] | ICR mice | no significant reduction |
